# tested-on: T1, corticotropin-releasing hormone (CRH) peptide (human and mouse (same sequence), not fully specified)
# T1 peptide: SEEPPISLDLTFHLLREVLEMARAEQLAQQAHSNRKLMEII
# assay-summary: cell-based or functional assay
outcome-measure: hCRHR1 Luciferase Reporter Assay IC50 (nM)
The figure you give is taken to be in nM; do not add the unit.

PR302334-3 (antibody, human IgG1, kappa, V domains shown) VH: EVKLVESGGGLVKPGGSLKLSCAASGFTFSTYAMSWVRQTPEKRLEWVASIRSGGTTYYPDSVKGRFTISRDNARNILYLQMSSLRSEDTAIYYCTRGIDWGQGTLVTVSA VL: DIVMTQSPDSLAVSLGERATINCKASQSVNNDVAWYQQKPGQPPRLLIYYASNRYTGVPDRFSGSGSGTDFTLTISSLQAEDVAVYYCQQDYSSWTFGGGTKVEIKR | 0.542

For this binder ( PR302334-10 (antibody, human IgG1, kappa, V domains shown) VH: EVQLVESGGGLVQPGGSLRLSCAASGFTFSTYAMSWVRQAPGKGLEWVASIRSGGTTYYPDSVKGRFTISRDNSKNTLYLQMNSLRAEDTAVYYCTRGIDWGQGTTVTVSS VL: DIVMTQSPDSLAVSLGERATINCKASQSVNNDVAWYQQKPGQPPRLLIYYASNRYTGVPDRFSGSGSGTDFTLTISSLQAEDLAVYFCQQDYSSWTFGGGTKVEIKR ), measured hCRHR1 Luciferase Reporter Assay IC50 is 0.839

For this binder ( PR302334-12 (antibody, human IgG1, kappa, V domains shown) VH: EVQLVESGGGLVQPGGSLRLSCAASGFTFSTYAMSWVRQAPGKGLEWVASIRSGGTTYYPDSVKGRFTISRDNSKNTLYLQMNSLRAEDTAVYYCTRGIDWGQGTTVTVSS VL: DIQMTQSSLSASVSLGDRVTITCKASQSVNNDVAWYQQKPGKAPRLLIYYASNRYTGVPSRFSGSGSGTDFTFTISSLQPEDLATYFCQQDYSSWTFGGGTKVEIKR ), measured hCRHR1 Luciferase Reporter Assay IC50 is 0.986
